- PROTOCOL DESCRIPTION: Cytotoxicity against human PHA-stimulated PBMC after 10 days by MTS assay
- Format: cell-based
PROPERTY MEASURED: CC50 at 240 h

CHEM SMILES: NC(=O)c1ccc(Oc2ccc(CN3CCC(N4C(=O)N(C5CCCCC5)C[C@H]4c4ccccc4)CC3)cc2)cc1
TEST VALUE: 14.4 µM
--
CHEM SMILES: CN(C)C(=O)c1ccc(Oc2ccc(CN3CCC(N4C(=O)N(C5CCCCC5)C[C@H]4c4ccccc4)CC3)cc2)cc1
TEST VALUE: 14.1 µM
--
CHEM SMILES: Cc1ncnc(C)c1C(=O)N1CCC(C)(N2CCC(N3C(=O)N(C4CCCCC4)C[C@H]3c3ccccc3)CC2)CC1
TEST VALUE: > 35.8 µM
--
CHEM SMILES: O=C(O)c1ccc(Oc2ccc(CN3CCC(N4C(=O)N(C5CCOCC5)C[C@H]4c4cccc(Cl)c4)CC3)cn2)cc1
TEST VALUE: > 32.2 µM
--
CHEM SMILES: Cc1nc(Oc2ccc(C(=O)O)cc2)ccc1CN1CCC(N2C(=O)N(C3CCOCC3)C[C@H]2c2cccc(F)c2)CC1
TEST VALUE: > 33.9 µM
--
CHEM SMILES: O=C(O)c1ccc(Oc2ccc(CN3CCC(N4C(=O)N(C5CCOCC5)C[C@H]4c4ccccc4)CC3)cn2)cc1
TEST VALUE: > 27.3 µM
--
CHEM SMILES: Cc1nc(Sc2ccc(C(=O)O)cc2)ccc1CN1CCC(N2C(=O)N(C3CCOCC3)C[C@H]2c2ccccc2)CC1
TEST VALUE: > 32 µM
--
CHEM SMILES: O=C(O)c1ccc(Sc2ccc(CN3CCC(N4C(=O)N(C5CCOCC5)C[C@H]4c4ccccc4)CC3)cn2)cc1
TEST VALUE: > 26.2 µM
